biological target: Full length DGKζ (in-house protein M1-V929) (Homo sapiens, UniProt Q13574); construct: His (N); TEV site (N); test: Biochemical DGK IC50 assay (ADP-Glo, lipid micelle substrate), DGKζ; details: 1 hour preincubation, 1 hour reaction, room temperature
Sequence (Q13574 1-929 isoform Q13574-4): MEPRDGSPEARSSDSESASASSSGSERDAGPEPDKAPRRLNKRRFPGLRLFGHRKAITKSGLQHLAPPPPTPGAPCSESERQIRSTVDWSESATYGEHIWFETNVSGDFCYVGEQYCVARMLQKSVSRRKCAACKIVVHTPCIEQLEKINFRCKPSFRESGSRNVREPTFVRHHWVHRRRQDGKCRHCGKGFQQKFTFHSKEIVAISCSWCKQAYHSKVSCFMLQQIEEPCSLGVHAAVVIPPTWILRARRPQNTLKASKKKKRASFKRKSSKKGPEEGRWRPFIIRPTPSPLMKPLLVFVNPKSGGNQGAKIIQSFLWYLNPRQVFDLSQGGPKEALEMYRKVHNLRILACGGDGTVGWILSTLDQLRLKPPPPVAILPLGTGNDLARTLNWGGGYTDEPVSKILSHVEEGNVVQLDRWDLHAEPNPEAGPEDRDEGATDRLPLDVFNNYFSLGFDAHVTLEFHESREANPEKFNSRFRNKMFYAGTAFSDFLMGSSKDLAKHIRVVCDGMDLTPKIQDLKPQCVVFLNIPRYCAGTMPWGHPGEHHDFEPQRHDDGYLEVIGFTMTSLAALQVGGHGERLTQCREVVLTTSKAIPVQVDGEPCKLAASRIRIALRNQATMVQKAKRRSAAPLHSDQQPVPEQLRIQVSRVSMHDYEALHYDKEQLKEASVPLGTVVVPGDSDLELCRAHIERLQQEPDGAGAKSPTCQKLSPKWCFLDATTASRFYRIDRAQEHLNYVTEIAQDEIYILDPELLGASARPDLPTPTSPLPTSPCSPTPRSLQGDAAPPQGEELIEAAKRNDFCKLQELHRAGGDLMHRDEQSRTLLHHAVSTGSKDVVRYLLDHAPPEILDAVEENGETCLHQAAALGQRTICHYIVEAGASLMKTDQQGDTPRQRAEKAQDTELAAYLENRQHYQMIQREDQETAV
Recorded measurements of IC50, one per entry
Write the value in nM as a bare number.

Solved entries (count: 2):
- compound: "CC(c1ccc2c(c1)OC(C)(C)CO2)N1C[C@H](C)N(c2c(F)c(=O)n(C)c3c2nc(CC#N)n3C)C[C@H]1C (single isomer, unassigned) [Compound A19b]"
  units symbol: "nM"
  IC50: 82
- compound: "CC(c1ccc2c(n1)OC(C)(C)CO2)N1C[C@H](C)N(c2nc(=O)n(C)c3c2nc(CC#N)n3CC(F)F)C[C@H]1C (stereo partly drawn) [Compound A165]"
  units symbol: "nM"
  IC50: 69

Shift focus to the following entry.
Query block: Assign IC50 to the following record: CCn1c(CC#N)nc2c(N3C[C@@H](C)N(C(C)c4ccc5sc(C(C)C)nc5c4)C[C@@H]3C)nc(=O)n(C)c21 (stereo partly drawn) [Compound A96]
Result block: 63
